Please respond with reported pKi for every item in the list.
- SYSTEM_TESTED: human GAL3 receptor (Homo sapiens, UniProt O60755)
- Construct: expressed in transfected cells
- Sequence (O60755 whole entry): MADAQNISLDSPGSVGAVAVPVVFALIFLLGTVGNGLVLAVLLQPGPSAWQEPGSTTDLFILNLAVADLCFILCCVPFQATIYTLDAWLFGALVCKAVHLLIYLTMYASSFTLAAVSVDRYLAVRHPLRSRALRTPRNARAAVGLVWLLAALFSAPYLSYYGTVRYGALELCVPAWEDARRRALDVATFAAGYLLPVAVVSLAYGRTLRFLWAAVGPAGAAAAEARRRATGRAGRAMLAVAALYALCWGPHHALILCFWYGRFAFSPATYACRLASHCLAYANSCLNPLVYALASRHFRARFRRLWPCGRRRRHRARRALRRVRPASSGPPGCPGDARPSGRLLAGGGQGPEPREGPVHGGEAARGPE
- METHOD: Radioligand binding at cloned human GAL3 receptor
- COND: pyrimidines, cloned human receptor; read-out: Ki GalR3
In simple prose, pKi is minus the logarithm base ten of a concentration in moles per litre.

Q: Which measured pKi value corresponds to CCCCCCCCc1ccc(Nc2cc(N(C)C)nc(N3CCN(c4ccccn4)CC3)n2)cc1 ?
Ans: 7.74

Q: Returns the measured pKi for the input compound. Input: CN(C)c1cc(Nc2ccc(C(C)(C)C)cc2)nc(Nc2ccccc2)n1
Ans: 6.14

Q: Which pKi is listed for Cc1ccc(Nc2cc(N3CCCCC3)nc(N3Cc4cccc5cccc(c45)C3)n2)cc1 ?
Ans: 6.97

Q: Can you look up the measured pKi of CC1CCC(Nc2cc(N(C)C)nc(Nc3ccccc3)n2)CC1 (stereo not drawn) for me?
Ans: 6.12

Q: Recorded pKi of Cc1ccc(Nc2cc(N3CCCCC3)nc(N3CCN(c4c(C)cccc4C)CC3)n2)cc1 , please.
Ans: 7.20

Q: For the compound shown here, Cc1ccc(Nc2cc(N(C)C)nc(N3CCN(c4ccc(O)cc4)CC3)n2)cc1 , give the reported pKi.
Ans: 6.32

Q: Need pKi, item COc1ccc(OC)c(Nc2cc(N(C)C)nc(N3CCN(Cc4ccccc4)CC3)n2)c1
Ans: 6.22

Q: Value lookup for pKi; key = CN(C)c1cc(NC23CC4CC(CC(C4)C2)C3)nc(N2CCN(Cc3ccccc3)CC2)n1
Ans: 7.28

Q: What does the record list as pKi for Cc1cccc(Nc2cc(N(C)C)nc(Nc3ccccc3)n2)c1 ?
Ans: 6.24

###

I'd appreciate it if you could supply selectivity ratio hα2A values for the items below.
- SYSTEM_TESTED: human α2A adrenoceptor (Homo sapiens)
- Construct: expressed in transfected cells
- Sequence (P08913 whole entry): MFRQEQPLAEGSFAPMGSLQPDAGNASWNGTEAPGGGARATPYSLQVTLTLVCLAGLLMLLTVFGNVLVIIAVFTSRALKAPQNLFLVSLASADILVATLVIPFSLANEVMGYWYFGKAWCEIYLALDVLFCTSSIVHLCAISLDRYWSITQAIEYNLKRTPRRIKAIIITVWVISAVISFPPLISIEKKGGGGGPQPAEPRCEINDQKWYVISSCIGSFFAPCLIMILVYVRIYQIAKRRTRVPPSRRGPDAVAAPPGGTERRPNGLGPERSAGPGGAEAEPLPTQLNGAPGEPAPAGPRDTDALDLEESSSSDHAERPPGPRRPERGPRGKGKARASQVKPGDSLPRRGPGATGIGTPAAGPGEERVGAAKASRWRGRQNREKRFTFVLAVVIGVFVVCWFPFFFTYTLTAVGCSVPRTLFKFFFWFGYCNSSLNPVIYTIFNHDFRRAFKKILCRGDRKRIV
- METHOD: Radioligand binding, α2A adrenergic receptor
- COND: Table 10; Ki hα2A divided by Ki hGAL3

Q: Quick one: selectivity ratio hα2A for O=C1C(=Nc2ccc(C(F)(F)F)cc2)c2ccccc2N1c1ccccc1 ?
Ans: >100

Q: Consider the molecule shown here: O=C1C(=Nc2ccc(Br)cc2)c2ccccc2N1c1ccccc1 What is its recorded selectivity ratio hα2A?
Ans: >100

Q: Form field: reported selectivity ratio hα2A of Cc1ccc(Nc2cc(N3CCCCC3)nc(N3CCN(c4ncccc4C(F)(F)F)CC3)n2)cc1
Ans: >100

Q: Quick one: selectivity ratio hα2A for COc1cccc(Nc2cc(N3CCCCC3)nc(N(C)CCc3c[nH]c4ccccc34)n2)c1 ?
Ans: >30

Q: Request the reported selectivity ratio hα2A associated with Cc1ccc(Nc2cc(N3CCCCC3)nc(N(C)CCc3c[nH]c4ccccc34)n2)cc1
Ans: 20

Q: Quick one: selectivity ratio hα2A of O=C1C(=Nc2ccc(Cl)cc2)c2ccccc2N1c1ccccc1 ?
Ans: >100

Q: Sample CN(C)c1cc(Nc2ccc(Cl)c(Cl)c2)nc(Nc2ccccc2)n1 — what was its selectivity ratio hα2A?
Ans: >100

Q: # query: selectivity ratio hα2A of entry O=C1C(=Nc2cccc(Cl)c2)c2ccccc2N1c1ccccc1
Ans: >100

Q: # query: selectivity ratio hα2A of entry CN(CCc1c[nH]c2ccccc12)c1nc(Nc2ccc(F)c(F)c2)cc(N2CCCCC2)n1
Ans: >100

Q: For the molecule Cc1ccc(Nc2cc(N3CCCCC3)nc(N(C)CCc3ccccc3)n2)cc1 , what selectivity ratio hα2A is on record?
Ans: >30

Q: Would you mind telling me what selectivity ratio hα2A value was observed for COC[C@@H]1[C@@H](c2ccccc2)OCCN1c1nc(Nc2ccc(C)cc2)cc(N2CCCCC2)n1 ?
Ans: 22

Q: Could you tell me which selectivity ratio hα2A is on file for Cc1ccc(Nc2cc(N(C)C)nc(N(C)CCc3c[nH]c4ccccc34)n2)cc1 ?
Ans: 4

Q: May I ask what selectivity ratio hα2A has been recorded for O=C1C(=Nc2cccc(C(F)(F)F)c2)c2ccccc2N1c1ccccc1 ?
Ans: >100
